assay: folding stability dG unfold from chymotrypsin proteolysis; higher = more stable
propertyLabel: folding stability dG unfold (kcal/mol)

> print(dat)
                             monomersequence                propertylabel  recordedresult
 1  SAGMKKVIELTIPVTGPEEVEELVAKLEEEEPAVPVERRPDPRLGAVRVVVEKKFPDSIVYITLTAAASAGG [r19_262_JUSTAS]  folding stability dG unfold           0.496
 2  SAGGSAGGGEMELVLTVPPEEVTPEQLLELVEEIREALEKGGAKAEPVKIDPEKGVVILFRVDPSAGGSAGG [r6_850_TrMRF]  folding stability dG unfold           0.258
 3  SAGGSAGGSAGGSIVVRITPNPETGTVTIDVYRVLPPGVLRPGAGFTVPLSLIPPGAVVGSAGGSAGGSAGG [r7_455_TrMRF]  folding stability dG unfold            1.17
 4  SMTVEVELTVTVEVVDPKTGKKKTVTVKVTVKVRVTEVKTKDGKTEVKVELSEEALEEARRLAEELAKKKSA [r9_698_TrROS_Hall]  folding stability dG unfold            2.95
 5  SAGGMKEIAKALGIKPEDVKIEEEEIEVNGKKVKKIKITVKDKKTKKEYKIELTIVYDKNGKIVKIELSAGG [r13_358_TrROS_Hall]  folding stability dG unfold            4.72
 6  SAGGKSVKVSLPKEALKKAKENEKVVITLPDGTKREAILVRGGDSVPVFVVNPDNPEEAEYVGEATVGSAGG [r13_745_TrMRF]  folding stability dG unfold           0.134
 7  SAGGSAGGSMIIRIKTENGEEIEIEAESEEEAKKAAEELKKELEEKGYKIEEVEIYEIPEEELSAGGSAGGS [r12_301_TrROS_Hall]  folding stability dG unfold            2.32
 8  SAGGASFSLSEGYDPSLGKTFTRETEAPEVPVPPVTVVPLSEIGRLKAEGVPPSWTVDPETGTVTVTSAGGS [r16_194_JUSTAS]  folding stability dG unfold           0.564
 9  KSKEEQKEQQEEQQKPPPVEIKVEVEVVKSPNGNPYFQFNVEYYDPGDGEPIGEITISVPPDDVDELADEFS [r1_415_TrROS]  folding stability dG unfold            2.63
10  SEETLRILIRDPATGELREIEVRAGETVTVTFPDGSTVTLRITVVAAPPPPPKTVTLDPNETVEEGETVLSA [r9_467_TrROS_Hall]  folding stability dG unfold             1.9
11  SLEVAAELGLSVSSLEELETDPEKGTRLLRLTAPTPGATVEVLVEVTTRKDSKGETVPEVRVLAVRTVAPSA [r9_613_JUSTAS]  folding stability dG unfold            1.33
12  SAGGSAGGSEIPDIEITIDSIEFFPDGTVRITATVRFPGGGTAKITLTLPAPPAEYEPPSDLLSAGGSAGGS [r12_558_TrMRF]  folding stability dG unfold            1.12
13  SAGGSAGGSAGGVVVVEVEIRLSDEEIEALKDLGISAEDLTLRVTVVVELPPPPPAEEESAGGSAGGSAGGS [r10_1149_TrROS_Hall]  folding stability dG unfold            1.04
14  SAKLTLEIEVNGKKYKAEITSVDEETGTVTIKVTFPDGSTQTLTLTFPPAPPPKVEKVYVVDKDGKLLKSAG [r14_466_TrROS_Hall]  folding stability dG unfold            1.83
15  SAGGSAIKLPPGEEYTIIMRNPQNGRPFKVPIKRVDPGQIQIEIENPKNGEKQKFTIPANDIEIVKSAGGSA [r15_381_TrROS]  folding stability dG unfold          -0.896
16  SAGGSYLDEVREKILKEYPLKPGEPKEIEITVPLPSGRTVKIKIPVTVDPKTGKVEAKFEVLEETKESAGGS [r16_634_JUSTAS]  folding stability dG unfold            1.22
17  SAGPPGQPVKTIEIMIEFPPGQTMEEARERVEEIADEIQRKFPKIKSIDVDVQKDDDTYYVNANITIPYSAG [r5_446_TrROS]  folding stability dG unfold           0.372
18  SAGGEMELTLTVTIKVENLTKEQIEEELRKLLEELGFEIEEITVEYDEENKTITVTVRIRLPPLEDLSAGGS [r16_287_TrROS_Hall]  folding stability dG unfold            2.98
19  SAGGSAGGSAMSPTEAERARPVPVVKTETTVTLDPSGYRVETVTYDGGVTETVVTPLPPELASAGGSAGGSA [r18_192_JUSTAS]  folding stability dG unfold          -0.143
20  SAGGSANFNVKLEIKIIERNPGNPDYVIVRIKVEHRHPNPDGNPMEHRRPIPWIMITDPEEIKEFISAGGSA [r15_1019_TrROS]  folding stability dG unfold            2.39
21  SERLKLKITIKNANGETYEVEIEFDLETNELTIKVKPVPALPPVTEKRVVKKDGKLVEETRTVLLSEEDLSA [r9_587_TrROS_Hall]  folding stability dG unfold            1.83
22  SAGGSAGGSAGGSKLKEGEKYKVYFKKTKKELEVETLEQLKALEKAGKKVEIVKIEKVPSAGGSAGGSAGGS [r4_214_TrROS_Hall]  folding stability dG unfold           0.153
23  SAGGSAGGSAGSPDRPRRVEPVPVVTYKDPDLGKEFTSPEEIEKTKEELEKKGLSVEVSASAGGSAGGSAGG [r17_289_JUSTAS]  folding stability dG unfold           0.482
24  SAGGSAMKLTLKDKKGNTLFLEVEEKTSEDGTPYYEVKIYYPNTNKVEYAEVPVENLEEFAKKLADSAGGSA [r15_92_TrMRF]  folding stability dG unfold            3.31
25  SAGGSAGGSAGGKKVKVIKVSVTYDPKTKKLTIKVEKTGKTYTIPLKEIELVNGYLKIKSAGGSAGGSAGGS [r10_942_TrROS_Hall]  folding stability dG unfold            2.45
26  SAGGSETVRVEVEVELENGYRVRVEMEFDLETKEMTMRVEVEPVLELSPEELEKLKKLLEELGIEVSAGGSA [r2_304_TrROS_Hall]  folding stability dG unfold            3.43
27  SAGGKATVTITEVKVETETVTLKYDPETGELVEKTETVTRVEVKTITIEADKNPELAEELLKKLGIESAGGS [r16_467_TrROS_Hall]  folding stability dG unfold            2.93
